- assay_system: acetylcholine receptor
- assay_overview: SPR, AchR immobilised on CM5 chip, peptide 10 uM
Y means recorded Binding affinity (RU) is 20 RU or above; N means it is below 20 RU.

Please check the record RPHWKR [6mer-2-751] and state if its Binding affinity (RU) is at or above 20 RU.
N

Say whether RRAWVR [6mer-1-1012] shows Binding affinity (RU) of 20 RU or more.
Y

Test whether the binder KNEKKR [6mer-2-741] records Binding affinity (RU) of 20 RU or higher.
Y

Does the reported Binding affinity (RU) for KCTAKK [6mer-2-676] fall at or above the 20 RU mark?
N

For this binder, is measured Binding affinity (RU) 20 RU or higher? RHCIKR [6mer-2-797]
N

Confirm if Binding affinity (RU) reported for the binder KRNPVK [6mer-1-998] is 20 RU or above.
Y

Check the entry KRDAWR [6mer-1-1019] : does Binding affinity (RU) equal or exceed 20 RU?
Y

Evaluate RKECFK [6mer-1-955] : Binding affinity (RU) at minimum 20 RU?
Y

# bool: Binding affinity (RU) of RMEMRK [6mer-2-786] >= 20 RU
Y

State whether the measured Binding affinity (RU) reaches 20 RU, counting equality as reaching it, for KRHTHR [6mer-1-1016]
Y

Does Binding affinity (RU) meet or surpass 20 RU for KKIDHK [6mer-1-1063] ?
Y

Does Binding affinity (RU) meet or surpass 20 RU for KEDMKR [6mer-2-723] ?
Y

Answer whether Binding affinity (RU) of RKAHDK [6mer-1-991] is greater than or equal to 20 RU.
Y

Item RFCGRK [6mer-2-673] with Binding affinity (RU) of 20 RU or above?
Y

Decide: Binding affinity (RU) of KRIHMK [6mer-1-1002] >= 20 RU?
Y

Tell me whether Binding affinity (RU) is at least 20 RU here: RCPDKR [6mer-2-729]
Y

Is Binding affinity (RU) at least 20 RU? Consider KHSPRK [6mer-2-765]
Y
